Listed molecules paired with reported GI50
- System: ACHN
- protocol: NCI tumour cell line growth inhibition, 48 h
The source made the active and inactive calls. No stated cut-off is given here; in the data, active = GI50 up to about 1.1 µM and inactive = higher.

Answered cases to consult:
* CCOC(=O)C(Cc1cn(S(=O)(=O)c2ccccc2)c2ccccc12)(NC(C)=O)C(=O)OCC | 32.3 µM (inactive)
* Cc1cc2nc(N3C(=O)/C(=C/Cc4ccco4)N=C3c3ccccc3)sc2cc1C | 26.7 µM (inactive)

Specify reported GI50 for the molecule shown: Cc1ccccc1/N=N/c1c(-c2ccccc2)nn(C(=O)CC(=O)Nc2cccc(Cl)c2)c1-c1ccccc1
23 µM (inactive)

Specify reported GI50 for the molecule shown: COC(=O)C(=O)C(C(=O)OC)C(=O)C(=O)Nc1cc(Cl)c(C)cc1S(=O)(=O)O (stereo not given)
> 100 µM (inactive)

Specify reported GI50 for the molecule shown: OCC1OC(O)C(/N=C\c2ccc3c(c2)OCO3)C(O)C1O (stereo not given)
> 100 µM (inactive)

Specify reported GI50 for the molecule shown: C1=Cc2nc1c(-c1ccncc1)c1ccc([n-]1)c(-c1ccncc1)c1nc(c(-c3ccncc3)c3ccc([n-]3)c2-c2ccncc2)C=C1.[Zn+2]
> 100 µM (inactive)

Specify reported GI50 for the molecule shown: Nc1cccc(C2CCCc3c2[nH]c2ccccc32)c1 (stereo not given)
25 µM (inactive)

Specify reported GI50 for the molecule shown: Cc1cc2c(c(C#N)c1C)NC(=O)CCC2=O
> 100 µM (inactive)

Specify reported GI50 for the molecule shown: CCN1/C(=C/c2ccc3ccccc3[n+]2CC)C=Cc2ccccc21
2.33 µM (inactive)

Specify reported GI50 for the molecule shown: O=C(O)c1cc(-c2ccc3cc(O)c(O)cc3c2)ccc1O
> 12.5 µM (inactive)

----------
- Tested on: OVCAR-4
- protocol: NCI tumour cell line growth inhibition, 48 h
Active and inactive are the calls of the source. Rule as the data show it: active = GI50 up to about 1.1 µM and inactive = higher.
measured.quantity: GI50

- CCOC(=O)c1cc(Br)c(-c2cc(C)co2)[nH]1: > 100 µM (inactive)

Lab note: record GI50 of O=C(CCc1n[nH]c(=S)o1)Nc1cc(Cl)c(Cl)cc1Cl tested on OVCAR-4.
> 100 µM (inactive)

Lab note: record GI50 of O=C(O)C(Sc1ccc(Cl)cc1)Sc1ccc(Cl)cc1 tested on OVCAR-4.
48.4 µM (inactive)

Lab note: record GI50 of N=C(/C=C/c1ccc(-c2cn3cc(/C=C/C(=N)N4CCOCC4)ccc3n2)cc1)N1CCOCC1 tested on OVCAR-4.
> 100 µM (inactive)

----------
- System: KM12
- protocol: NCI tumour cell line growth inhibition, 48 h
Calls of active or inactive are those of the source. Cut-off read from the data, not from the text of the source: active = GI50 up to about 1.1 µM and inactive = higher.
measured.quantity: GI50

Answered cases to consult:
• CC1(C)[C@H]2CC[C@]1(C)[C@H](OC(=O)NNC(=O)O[C@@H]1C[C@@H]3CC[C@@]1(C)C3(C)C)C2 = 15.7 µM (inactive)
• COc1ccc2oc(=O)c(-c3csc(C)n3)cc2c1 = > 100 µM (inactive)
• CC1C(c2ccccc2)=CCON1c1ccccc1 (centres undefined) = > 100 µM (inactive)

Lab note: record GI50 of CC1=C/C(=C2/N=C(N(C)C)SS2)C(C)=N1.[O-][Cl+3]([O-])([O-])O tested on KM12.
> 100 µM (inactive)

Lab note: record GI50 of CC(=O)O[C@H]1C(=O)[C@@]2(C)[C@H]([C@H](OC(=O)c3ccccc3)[C@]3(O)C[C@H](OC(=O)[C@H](O)[C@@H](NC(=O)c4ccc(N)cc4)c4ccccc4)C(C)=C1C3(C)C)[C@]1(OC(C)=O)CO[C@@H]1C[C@@H]2O tested on KM12.
< 0.005 µM (active)

Lab note: record GI50 of C=CC(=O)Nc1ccc(NC(=O)C=C)c2c1C(=O)c1ccccc1C2=O tested on KM12.
12 µM (inactive)

Lab note: record GI50 of CN(C)CC(=O)N1CCc2c([nH]c3ccccc23)C1c1cccnc1 (centres undefined) tested on KM12.
> 100 µM (inactive)

Lab note: record GI50 of N=C(N)NS(=O)(=O)c1ccc(NC(=O)c2cccn3c(=O)c4ccccc4nc23)cc1 tested on KM12.
15.9 µM (inactive)

Lab note: record GI50 of Cc1ccc2ccc(-c3ccccc3)c3c2c1C(=O)c1ccccc1C3=O tested on KM12.
> 100 µM (inactive)

Lab note: record GI50 of C=C[C@@]1(C)CCC2(O)C(CCC3C2(C)CCC[C@@]3(C)COC(=O)CC(=O)OC)C1 (some centres undefined) tested on KM12.
18.1 µM (inactive)

Lab note: record GI50 of CCN(CC)CC(C)(C)C(=O)/C=C/c1cccc(/C=C/C(=O)C(C)(C)CN(CC)CC)c1 tested on KM12.
0.471 µM (active)

Lab note: record GI50 of COc1ccc2c(c1)C1Oc3ccccc3CC1CO2 (centres undefined) tested on KM12.
37.2 µM (inactive)

Lab note: record GI50 of O=C1/C(=C/c2ccccc2)N=C(c2ccccc2)N1n1c(-c2ccccc2)nc2ccccc2c1=O tested on KM12.
61.7 µM (inactive)

Sourced from ChEMBL document CHEMBL1201862
